target: UniProtKB P28223; assay: Agonist activity at 5-HT2A receptor (unknown origin) expressed in HEK293 cells assessed as [3H]inositol phosphate accumulation after 2 hrs by scintillation counting
Sequence (P28223 whole entry): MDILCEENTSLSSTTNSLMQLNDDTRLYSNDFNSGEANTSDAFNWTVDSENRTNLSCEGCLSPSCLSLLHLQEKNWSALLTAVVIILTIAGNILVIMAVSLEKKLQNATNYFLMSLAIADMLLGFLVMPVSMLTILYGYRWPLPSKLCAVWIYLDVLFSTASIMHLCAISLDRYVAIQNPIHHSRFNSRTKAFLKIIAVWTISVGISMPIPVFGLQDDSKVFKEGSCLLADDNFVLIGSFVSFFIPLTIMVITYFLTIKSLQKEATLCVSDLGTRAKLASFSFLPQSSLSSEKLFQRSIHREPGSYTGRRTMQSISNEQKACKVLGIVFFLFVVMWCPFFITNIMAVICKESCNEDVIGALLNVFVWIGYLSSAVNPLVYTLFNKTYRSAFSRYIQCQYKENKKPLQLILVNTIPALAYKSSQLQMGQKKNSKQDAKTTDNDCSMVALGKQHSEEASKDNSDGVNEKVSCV
Measured pEC50, listed per entry.
In plain terms, pEC50 is the concentration in mol/L turned into minus its base-10 logarithm.

Answered cases to consult:
Which pEC50 value is on record for Fc1ccc2c(c1Cc1ccccc1)CCC1CNCCN21 (configuration not stated) ? 7.00

Consider the molecule CCCc1cccc2c1CCC1CNCCN21 (configuration not stated) and give its measured pEC50. 6.30

Fill in the blank: the reported pEC50 of c1ccc(Cc2cccc3c2CCC2CNCCN32)cc1 (configuration not stated) is ____. 6.90

What pEC50 value was documented for this molecule, c1cc(Cc2ccc3c(c2)OCO3)c2c(c1)N1CCNCC1CC2 (configuration not stated) ? 6.70

Need pEC50 of c1csc(Cc2cccc3c2CCC2CNCCN32)c1 (configuration not stated) , thanks. 7.10

Next, consider the following molecule.
Please look up its pEC50: c1cc(CC2CCC2)c2c(c1)N1CCNCC1CC2 (configuration not stated) 5.70
